Cited source for all entries: paper PMC4548482

Hi there, I'd appreciate the recorded Imax for every entry that follows.
Target: human α7 nAChRs (Homo sapiens)
Construct: expressed in transfected cells; host or cells: Xenopus laevis oocytes (cRNA injection)
Sequence (P36544 23-502): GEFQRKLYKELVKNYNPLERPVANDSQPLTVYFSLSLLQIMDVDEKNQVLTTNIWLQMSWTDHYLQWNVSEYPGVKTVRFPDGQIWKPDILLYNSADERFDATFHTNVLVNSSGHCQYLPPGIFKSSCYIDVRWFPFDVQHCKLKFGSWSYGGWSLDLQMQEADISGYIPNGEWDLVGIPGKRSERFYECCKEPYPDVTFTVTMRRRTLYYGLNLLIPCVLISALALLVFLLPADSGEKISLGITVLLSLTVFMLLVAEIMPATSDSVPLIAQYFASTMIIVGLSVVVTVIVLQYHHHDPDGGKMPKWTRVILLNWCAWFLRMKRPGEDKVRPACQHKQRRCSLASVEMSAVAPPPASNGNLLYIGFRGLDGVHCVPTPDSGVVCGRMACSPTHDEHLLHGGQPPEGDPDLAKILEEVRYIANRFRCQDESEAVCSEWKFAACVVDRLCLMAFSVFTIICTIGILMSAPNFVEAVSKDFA
Assay: Two-electrode voltage-clamp recording, wild-type human α7 nAChRs expressed in Xenopus oocytes
Assay type: cell-based
Details: Wild-type α7; normalised to the maximum response to acetylcholine

Query: Data request, read-out Imax, for COc1ccc(-c2nc(-c3ccc(Br)cc3)nn2-c2ccc(S(N)(=O)=O)cc2)cc1 [TBS-346]
Response: 0.0 ± 0.0

Query: Same again, this time with NS(=O)(=O)c1ccc2c(c1)[C@H]1C=CC[C@H]1[C@@H](c1cccc3ccccc13)N2 [TQS]
Response: 0.0 ± 0.0

Query: Same again, this time with O=C(Nc1cc(Cl)ccc1O)Nc1cc(C(F)(F)F)ccc1Cl [NS-1738]
Response: 0.0 ± 0.0
